# Assayed Target: Sodium-dependent serotonin transporter (Macaca mulatta)
# Sequence (Q9MYX0 whole entry): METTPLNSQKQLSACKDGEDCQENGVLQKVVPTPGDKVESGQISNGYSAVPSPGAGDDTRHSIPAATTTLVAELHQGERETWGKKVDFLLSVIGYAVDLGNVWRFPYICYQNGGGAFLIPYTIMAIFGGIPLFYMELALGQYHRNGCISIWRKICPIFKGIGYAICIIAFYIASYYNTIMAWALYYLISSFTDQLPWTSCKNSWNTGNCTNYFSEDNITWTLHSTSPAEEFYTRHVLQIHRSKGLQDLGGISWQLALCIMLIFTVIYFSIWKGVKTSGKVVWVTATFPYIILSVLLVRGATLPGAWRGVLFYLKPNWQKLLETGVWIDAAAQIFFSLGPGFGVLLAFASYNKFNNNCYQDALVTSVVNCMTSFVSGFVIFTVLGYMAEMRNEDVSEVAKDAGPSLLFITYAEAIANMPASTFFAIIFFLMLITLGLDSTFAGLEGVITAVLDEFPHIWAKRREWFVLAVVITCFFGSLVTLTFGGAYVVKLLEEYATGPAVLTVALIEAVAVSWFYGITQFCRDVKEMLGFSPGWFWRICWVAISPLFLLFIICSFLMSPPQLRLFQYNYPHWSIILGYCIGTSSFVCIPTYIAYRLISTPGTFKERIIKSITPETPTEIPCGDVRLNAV
Consider the cut-off 30 nM. If the recorded IC50 is strictly smaller, the label is TRUE; if not, the label is FALSE.

1. COC(=O)[C@@H]1C2CCC(C[C@@H]1c1ccc(Cl)c(Cl)c1)O2 (stereo not given in full)    TRUE
2. COC(=O)[C@@H]1[C@@H]2CCC(C[C@H]1c1ccc(Cl)c(Cl)c1)O2    FALSE
3. COC(=O)[C@@H]1C2CCC(C[C@H]1c1ccc(Cl)c(Cl)c1)[S+]2[O-] (stereo not given in full)    FALSE
4. COC(=O)[C@@H]1C2CCC(C[C@@H]1c1ccc3ccccc3c1)S2 (stereo not given in full)    TRUE
5. COC(=O)C1=C(c2ccc(Cl)c(Cl)c2)CC2C[C@@H](O)[C@@H]1N2C    FALSE
6. COC(=O)[C@@H]1C2CCC(C[C@H]1c1ccc(I)cc1)S2 (stereo not given in full)    FALSE
7. COC(=O)[C@@H]1[C@@H]2CCC(C[C@H]1c1ccc(Cl)c(Cl)c1)S2    FALSE
8. COC(=O)[C@@H]1C2CCC(C[C@H]1c1ccc(F)c(F)c1)S2 (stereo not given in full)    FALSE
9. COC(=O)[C@@H]1C2CCC(C[C@@H]1c1ccc(Cl)cc1)S2 (stereo not given in full)    FALSE

Is the reported IC50 for COC(=O)[C@@H]1C2CCC(C[C@H]1c1ccccc1)[S+]2[O-] (stereo not given in full) strictly below 30 nM?
FALSE

* * *

# Assayed Target: Transporter (Macaca mulatta)
# Sequence (Q7JHP9 whole entry): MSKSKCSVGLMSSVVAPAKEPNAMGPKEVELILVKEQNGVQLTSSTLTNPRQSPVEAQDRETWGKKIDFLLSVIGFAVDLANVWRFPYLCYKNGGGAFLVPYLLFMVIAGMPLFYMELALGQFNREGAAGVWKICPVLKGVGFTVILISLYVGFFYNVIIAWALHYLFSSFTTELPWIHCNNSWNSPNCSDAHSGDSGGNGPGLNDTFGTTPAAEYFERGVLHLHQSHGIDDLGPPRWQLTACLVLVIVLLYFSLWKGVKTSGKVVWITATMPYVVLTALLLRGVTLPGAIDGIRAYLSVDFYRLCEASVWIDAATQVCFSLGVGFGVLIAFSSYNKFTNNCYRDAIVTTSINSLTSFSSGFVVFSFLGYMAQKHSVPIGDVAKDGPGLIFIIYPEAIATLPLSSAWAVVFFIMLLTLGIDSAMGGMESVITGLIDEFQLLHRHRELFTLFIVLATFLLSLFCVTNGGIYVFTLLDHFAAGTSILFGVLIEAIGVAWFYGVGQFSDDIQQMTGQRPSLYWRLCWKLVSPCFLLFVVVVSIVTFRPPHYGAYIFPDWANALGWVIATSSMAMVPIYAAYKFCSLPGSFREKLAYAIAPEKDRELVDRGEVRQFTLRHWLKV
Property Measured: log10 of IC50 (log10 of the value in nM)
Annotation: log10 of IC50, nM basis.

Known log10 of IC50 results, listed for orientation:
1) COC(=O)C1=C(c2ccc3ccccc3c2)CC2CCC1S2 (centres undefined)    0.90
2) COC(=O)[C@@H]1[C@H]2[C@H](O)CC(C[C@H]1c1ccc(Cl)c(Cl)c1)N2C    -0.12
3) COC(=O)C1=C(c2ccccc2)CC2CCC1[S+]2[O-] (centres undefined)    3.78

Field: log10 of IC50 (Transporter (Macaca mulatta)). Entry: COC(=O)C1=C(c2ccc(Cl)c(Cl)c2)CC2CC[C@@H]1N2C
2.69

Field: log10 of IC50 (Transporter (Macaca mulatta)). Entry: COC(=O)[C@@H]1C2CCC(C[C@@H]1c1ccc(Cl)c(Cl)c1)S2 (some centres undefined)
0.76

Field: log10 of IC50 (Transporter (Macaca mulatta)). Entry: COC(=O)[C@@H]1[C@@H]2CCC(C[C@H]1c1ccc(Cl)c(Cl)c1)O2
1.75

Field: log10 of IC50 (Transporter (Macaca mulatta)). Entry: COC(=O)[C@@H]1C2CCC(C[C@@H]1c1ccc(F)c(Cl)c1)S2 (some centres undefined)
0.83

Field: log10 of IC50 (Transporter (Macaca mulatta)). Entry: COC(=O)C1=C(c2ccc(F)c(Cl)c2)CC2CCC1S2 (centres undefined)
0.88

Field: log10 of IC50 (Transporter (Macaca mulatta)). Entry: COC(=O)[C@@H]1C2CCC(C[C@H]1c1ccc(Cl)c(Cl)c1)O2 (some centres undefined)
0.49

Field: log10 of IC50 (Transporter (Macaca mulatta)). Entry: COC(=O)[C@@H]1[C@H]2CCC(C[C@H]1c1ccc(Cl)c(Cl)c1)O2
0.36

Field: log10 of IC50 (Transporter (Macaca mulatta)). Entry: COC(=O)[C@@H]1C2CCC(C[C@H]1c1ccc(F)c(F)c1)[S+]2[O-] (some centres undefined)
1.95
